All figures here come from PubChem BioAssay (NCI).

- System: UACC-62 melanoma
- test.method.notes: NCI-60 one-dose screen, 48 h
- run.parameters: 10 µM unless noted
The panel holds about 83,000 compounds, 20% with a hit somewhere; the sample as a whole holds those more often. Activity calls are given as the source filed them. Rule for the calls: active = growth percent below 10; inactive = the rest.
Labels: Yes for active, No for inactive

O=C(/C=C/c1cccc(Nc2ccnc3cc(Cl)ccc23)c1)c1ccc(Cl)cc1: No
O=C1/C(=C/c2cccc(Cl)c2)CCc2ccccc21: No
CC1CN(/N=C/c2ccc([N+](=O)[O-])o2)C(=N)O1 (stereo unspecified): No
COc1ccc(/C=C/C(=O)c2cccc(NS(C)(=O)=O)c2)cc1: No
Nc1ccn(C2O[C@H](CO)[C@@H](O)[C@@H]2O)c(=O)n1 (stereo partly specified): No
O=C1C2C(C(=O)N1CC[Se][Se]CCN1C(=O)C3C(C1=O)[C@H]1C=C[C@@H]3C1)[C@H]1C=C[C@@H]2C1 (stereo partly specified): Yes
CCOC1Oc2ccccc2C(=O)/C1=N/c1nccs1 (stereo unspecified): No
O=C(O)c1ccc2cccnc2c1O: Yes
O=C(N/N=C/c1cccc(O)c1)c1ccc(C(F)(F)F)nc1Nc1cccc(C(F)(F)F)c1: Yes
O=C(NC1CCCCC1)c1ccc(Nc2ncnc3c2cnn3-c2ccccc2)cc1: No
COC(=O)[C@H](Cc1cn(C)cn1)NC(=O)[C@@H](NC(=O)Nc1cc(C(F)(F)F)cc(C(F)(F)F)c1)C(C)C: Yes
O=[N+]([O-])c1ccc(N=Nc2c(Cl)cc(O)cc2Cl)cc1: Yes
C(=C1c2ccccc2-c2ccccc21)c1ccccn1: No
C=CCN(/C=C/CN(CC=C)CC=C)CC=C: No
CC1C(C)N(C(=O)CCl)c2ccccc2N1C(=O)CCl (stereo unspecified): Yes
O=C(CNC(=O)c1cccc2ccccc12)Nc1ccccc1Cc1ccccc1: No
CSc1nc2nc3c(c(-c4ccc(C)cc4)c2c(=O)[nH]1)CN(C)C/C3=C\c1ccc(C)cc1: No
O=C(O)c1ccc(CNS(=O)(=O)c2ccc3ccccc3c2)cc1: No
CCOC(=O)N1CCC(N=C2CSc3nnc(-c4cc(C(F)(F)F)cc(C(F)(F)F)c4)n3N2)CC1: No
CCOC(=O)CNC(=O)C1(NC(=O)CNC(=O)OCc2ccccc2)CCCC1: No
CCOC(=O)CCN(c1c(Cl)ssc1=O)C(C)C: No
